Values compiled from PubChem BioAssay (NCI).

System: M14 melanoma
Assay: NCI-60 one-dose screen, 48 h (100 = growth as untreated, 0 = no growth, -100 = all killed)
Conditions: 10 µM unless noted
About 83,000 compounds went through this panel and 20% of them were active in at least one assay; those are over-represented in the sample as a whole.

{"COMPOUND": "Cc1ccc([C@H]2C(C(=O)c3ccc(Cl)cc3)C3(N[C@@H]2c2ccccc2)C(=O)Nc2ccc(Cl)cc23)cc1 (some centres undefined)", "growth (%)": 44.8}
{"COMPOUND": "CN(C)c1ccnc(NCCCSC(c2ccccc2)(c2ccccc2)c2ccccc2)c1", "growth (%)": -70.8}
{"COMPOUND": "COc1ccc(C2=NN(c3ccccc3)C(c3ccc(OC)c(OCc4ccccc4)c3)C2)cc1OC (centres undefined)", "growth (%)": 104}
{"COMPOUND": "Cc1ccc(S(=O)(=O)c2nc(S(=O)(=O)c3ccc(C)cc3)c(N3CCN(C)CC3)s2)cc1", "growth (%)": 74}
{"COMPOUND": "Brc1ccc(N/N=C/c2c[nH]c3ccc(Br)cc23)nc1", "growth (%)": -71.3}
{"COMPOUND": "N=C1N=C(SCc2nc3ccccc3[nH]2)NC(=O)/C1=C/c1ccc(Cl)cc1", "growth (%)": 108}
{"COMPOUND": "CCCSc1nc(Nc2ccc(S(N)(=O)=O)cc2)c(C#N)c(-c2cc(OC)c(OC)c(OC)c2)n1", "growth (%)": 18.3}
{"COMPOUND": "Cc1cc(=O)oc2cc(OCCCCOc3ccc(/C=C/C(=O)Nc4ccccc4N)cc3)ccc12", "growth (%)": 79.5}
{"COMPOUND": "C=C1CCC2C3(C)COC(c4ccccc4)OC3CCC2(C)C1CC(NCc1ccccc1)C1=CCOC1=O (centres undefined)", "growth (%)": 76}

----------
Test system: T-47D breast
Test: NCI-60 one-dose screen, 48 h
Details: 10 µM unless noted
Procedure: Growth inhibition of the T-47D human tumor cell line is measured as a screen for anti-cancer activity. Cells are grown in 96 well plates and exposed to the test compound for 48 hours. Compounds are tested at a single concentration, which is 10^-5 M for most compounds. The reported endpoint is percent growth (GI% or GIPRCNT), where numbers from 0 - 100% represent growth inhibition, and numbers from -100% - 0 represent cell death. For example, a value of 40 represents 60% growth inhibition. […]
Compounds without any hit were thinned out: in the full panel of roughly 83,000, 20% have a hit. Active and inactive are the calls of the source. How the source made its calls: active means growth percent below 10; inactive means the rest.
Possible outcomes: active, inactive

{"COMPOUND": "CC(=O)/C=C/c1cccc2c1C(=O)NC(C)(c1cc3cc(Br)ccc3oc1=O)N2 (configuration not stated)", "GROUP": "inactive"}
{"COMPOUND": "COc1ccc(-c2nc3cc(C)ccc3n2CC(=O)N=Nc2c(O)[nH]c3ccc(OC)cc23)cc1", "GROUP": "active"}
{"COMPOUND": "COc1cc(-c2nc3cc(Cl)c(Cl)cc3[nH]2)ccc1OCc1nnc(-c2cccs2)o1", "GROUP": "inactive"}
{"COMPOUND": "O=C(C1=CNC(=S)NC1c1ccc(O)cc1)c1cc2ccccc2oc1=O (configuration not stated)", "GROUP": "inactive"}
{"COMPOUND": "CCOc1ccc(C(=O)NC(=S)Nc2ccc(S(N)(=O)=O)cc2)cc1", "GROUP": "inactive"}
{"COMPOUND": "O=c1oc2ccccc2cc1-c1csc(N=Nc2c(O)[nH]c3ccc(Cl)cc23)n1", "GROUP": "inactive"}
{"COMPOUND": "N#Cc1c(-c2ccccc2Cl)cc(-c2c[nH]c3ccccc23)[nH]c1=O", "GROUP": "inactive"}

----------
System: NCI-H23 lung
Test: NCI-60 one-dose screen, 48 h (100 = growth as untreated, 0 = no growth, -100 = all killed)
Settings: 10 µM unless noted
Compounds without any hit were thinned out: in the full panel of roughly 83,000, 20% have a hit.
VALUE_TYPE: growth (%)

{"MOLECULE": "Cc1cc2nc3c4ccccc4n(CCCN(C)C)c3nc2cc1C", "NUMERIC_RESULT": -53.4}
{"MOLECULE": "Cc1ccc(C(SCCNCc2cc(N(C)C)ccn2)(c2ccccc2)c2ccccc2)cc1", "NUMERIC_RESULT": -35.8}
{"MOLECULE": "CC(C)c1ccc2c(N)c(C(=O)Nc3cccc(C(F)(F)F)c3)sc2n1", "NUMERIC_RESULT": 90.5}
{"MOLECULE": "COc1c(F)ccc(C(=O)Nc2ccc3nc(NC(=O)C4CCCN(S(=O)(=O)C5CC5)C4)sc3c2)c1F (stereo unspecified)", "NUMERIC_RESULT": 31.5}
{"MOLECULE": "NS(=O)(=O)c1ccc(-n2cc(-c3cccc(NC(=O)c4cc(C(F)(F)F)cc(C(F)(F)F)c4)c3)nn2)cc1", "NUMERIC_RESULT": 41.1}
{"MOLECULE": "COc1ccc(CCC2c3c(cc4c(c3OC)OCO4)CCN2C)cc1 (stereo unspecified)", "NUMERIC_RESULT": -48.6}
{"MOLECULE": "Cn1cc(-c2cc3nc(-c4cn(C)c5ncc(Br)cc45)cc(N)n3n2)c2ccccc21", "NUMERIC_RESULT": -22.5}
{"MOLECULE": "COc1cccc(-c2c(C#N)c(-c3ccc(Cl)cc3)nc3n[nH]c(-c4ccc(Cl)cc4)c23)c1", "NUMERIC_RESULT": 64.5}
{"MOLECULE": "C/C(=N\\N=C\\c1cc([N+](=O)[O-])ccc1Cl)c1ccc2c(c1)Nc1ccccc1S2", "NUMERIC_RESULT": 54.7}
{"MOLECULE": "CCCCCCn1c(O)c(N=Nc2nc(-c3cc4ccccc4oc3=O)cs2)c2ccccc21", "NUMERIC_RESULT": -20.9}
{"MOLECULE": "CC1=C(C#N)C2=NNCC(c3ccccc3)=NN2C(c2ccccc2)=C1", "NUMERIC_RESULT": 105}
{"MOLECULE": "C=C1CC[C@@H]2[C@]3(C)COC(c4cn[nH]c4-c4ccc(Br)cc4)O[C@@H]3CC[C@@]2(C)[C@@H]1C/C=C1/C(=O)OCC1O (stereo partly specified)", "NUMERIC_RESULT": -86.1}
{"MOLECULE": "Cn1cc(-c2nc(N)nnc2-c2c[nH]c3ccc(Br)cc23)c2cccnc21", "NUMERIC_RESULT": 65.5}
{"MOLECULE": "O=C(/C=C/c1cccc(OCc2ccc(F)cc2)c1)c1nc2ccccc2[nH]1", "NUMERIC_RESULT": 73}
{"MOLECULE": "COc1ccc(-c2ccnc(SCc3cc4cc(OC)ccc4[nH]c3=O)n2)cc1", "NUMERIC_RESULT": 25.8}
{"MOLECULE": "COc1cc2c(c(OC)c1OC)C(=O)CC(c1cccc(NC(=O)c3cccc(NC(=O)[C@H](C)NC(=O)OC(C)(C)C)c3)c1)O2 (stereo partly specified)", "NUMERIC_RESULT": 70.4}
{"MOLECULE": "CC(=O)c1cc(C(=O)c2ccccc2)n2c1ccc1ccccc12", "NUMERIC_RESULT": 105}
{"MOLECULE": "CCCCSc1nc(NCCc2c[nH]c3ccccc23)c(C#N)c(-c2ccc(OC)cc2)n1", "NUMERIC_RESULT": 48.3}
{"MOLECULE": "COc1cc(OC)c2c3nc4cc(C)c(C)cc4nc3n(CCN(C)C)c2c1", "NUMERIC_RESULT": 67.4}
{"MOLECULE": "COc1ccc(C(=O)/C=C/c2c(F)cccc2Cl)cc1S(N)(=O)=O", "NUMERIC_RESULT": -16}
{"MOLECULE": "CN(C)CCn1c2ccccc2c2nc3cc4ccccc4cc3nc21", "NUMERIC_RESULT": 16.6}
{"MOLECULE": "CC(C)CSc1nc(NCCc2c[nH]c3ccccc23)c(C#N)c(-c2ccccc2)n1", "NUMERIC_RESULT": 76.6}
{"MOLECULE": "CSc1ccc(NC(=O)c2ccc3nnn(/C(C#N)=C/c4ccccn4)c3c2)cc1", "NUMERIC_RESULT": -95.9}
{"MOLECULE": "CN1CCN(c2ccc3c(c2)nc(NNC(=O)c2ncccn2)c2cccn23)CC1", "NUMERIC_RESULT": 4.51}
{"MOLECULE": "NS(=O)(=O)c1ccc(N=Nc2c(O)n(CC(=O)Nc3ccccc3Cl)c3ccccc23)cc1", "NUMERIC_RESULT": 30}
{"MOLECULE": "CCCCCCCCc1ccc(C(=O)Nc2ccc(C)cc2C(=O)O)cc1C", "NUMERIC_RESULT": 99.6}

----------
Tested on: HCT-116 colon
Test: NCI-60 one-dose screen, 48 h
Conditions: 10 µM unless noted
This is part of a sample that, as a whole, favours compounds with a hit. Of some 83,000 tested, about 20% had one in any assay. Calls of active or inactive are those of the source. How the source made its calls: active means growth percent below 10; inactive means the rest.
Outcomes: 1.0 = active, 0.0 = inactive

{"COMPOUND": "O=C(NN1C(=O)/C(=C/C=C/c2ccc([N+](=O)[O-])o2)SC1=S)c1ccc(Cl)cc1", "GROUP": 1.0}
{"COMPOUND": "CC1(C)CC[C@]2(C(=O)O)CC[C@]3(C)C(=CCC4[C@@]5(C)C[C@@H](O)[C@@H]6OC(c7ccc(F)cc7)OC[C@@]6(C)C5CC[C@]43C)C2C1 (some centres not stated)", "GROUP": 1.0}
{"COMPOUND": "COc1ccc(-c2ccnc(SCc3cc4ccccc4[nH]c3=O)n2)cc1", "GROUP": 0.0}
{"COMPOUND": "Cn1cc(NC(=O)c2cc(NC(=O)c3ccc(C#Cc4ccccc4)cc3)cn2C)cc1C(=O)NCCCN1CCOCC1", "GROUP": 1.0}
{"COMPOUND": "CN(C)c1ccnc(CNCCSC2(c3ccc(C(F)(F)F)cc3)c3ccccc3C=Cc3ccccc32)c1", "GROUP": 1.0}
{"COMPOUND": "CCCCCCCCOc1cccc(S(=O)(=O)Nc2ccc(C)cc2C(=O)O)c1", "GROUP": 0.0}
{"COMPOUND": "CCCCCCCCc1ccc(C(=O)Nc2ccc(C)cc2C(=O)O)cc1C", "GROUP": 0.0}
{"COMPOUND": "CC(=O)Oc1ccccc1C(=O)[Se]CC(=O)Nc1cccc(C(F)(F)F)c1", "GROUP": 1.0}
{"COMPOUND": "C#CCOc1cc(N(CC)CC)ccc1C(C(=O)NC(C)(C)C)N(C(=O)C1CCc2cc(F)ccc2O1)c1ccc(F)c(Cl)c1 (configuration not stated)", "GROUP": 0.0}
{"COMPOUND": "Nc1nc(-c2ccccc2)c(N=Nc2ccc([N+](=O)[O-])cc2Cl)s1", "GROUP": 0.0}
{"COMPOUND": "Cc1ccc(C(=O)CSc2nc3ccc(C)cc3c(=O)n2-c2ccc(F)cc2)cc1", "GROUP": 0.0}
{"COMPOUND": "CC1CCCCN1CCCNC(=O)N/C(N)=N/c1nc2ccccc2s1 (configuration not stated)", "GROUP": 0.0}
{"COMPOUND": "Nc1nc(C(F)(F)F)cs1", "GROUP": 0.0}
{"COMPOUND": "Cc1ccc(-c2nc(Nc3ccccc3S(N)(=O)=O)c3ccccc3n2)cc1", "GROUP": 0.0}
{"COMPOUND": "CN1CCN(c2ccc(C(=O)/C=C/c3cc(C(F)(F)F)cc(C(F)(F)F)c3)cc2)CC1", "GROUP": 1.0}
{"COMPOUND": "Cc1ccc(C(=O)NN2C(=O)/C(=C/C=C/c3ccc([N+](=O)[O-])o3)SC2=S)cc1", "GROUP": 1.0}
{"COMPOUND": "Cc1ncsc1-c1ccc(CNC(=O)[C@@H]2C[C@@H](O)CN2C(=O)[C@@H](NC(=O)C2(F)CC2)C(C)(C)C)c(OCCOCCOCCOCCOc2nc(Nc3cc(S(C)(=O)=O)ccc3N[C@@H](c3cccc4c3OC(F)(F)O4)c3ncccc3Cl)nc(N3CCNCC3)n2)c1", "GROUP": 0.0}
